MEASUREMENT DESCRIPTION: viability loss in pontine glioma line – cell-based, SU-DIPG-XVII, MIPE5.0, CellTiter-Glo, qHTS, dose response (AID 1347060);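 for AC50: cells exposed to compound for 48 hours before viability readout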
STATED CONDITIONS: CellTiter-Glo ATP luminescence
Results filed as inconclusive are left out. Calls of active or inactive are those of the source. No cut-off is given here; in the data, nearly all actives have AC50 up to about 26 µM.
Entry note: the call must match one of active, inactive

Could you check what this test reported for COCCN1CCN(Cc2ccc(-c3n[nH]c4c3C(=O)c3c(NC(=O)NN5CCOCC5)cccc3-4)cc2)CC1 ?
active

Could you check what this test reported for O=C(Nc1nc2cccc(-c3ccc(CN4CCS(=O)(=O)CC4)cc3)n2n1)C1CC1 ?
active

Could you check what this test reported for CCN1C(=O)N2Cc3cc(OC)cc(OC)c3[C@@H](C)C=C2C12CCN(Cc1cc(C)cc(C)c1)CC2 ?
active

Could you check what this test reported for COc1ccc(S(=O)(=O)N[C@@H](CNc2nc(C)nc(N3CCC(c4ccc5c(n4)NCCC5)CC3)c2C)C(=O)O)cc1 ?
inactive

Could you check what this test reported for CC(C)(C)c1cc(C(=O)O)c(NC(=O)Nc2ccc3[nH]ncc3c2)s1 ?
inactive

Could you check what this test reported for Cc1cc(CS(=O)(=O)c2ccccc2)cc(OCc2ccc(CN3CCC[C@@H]3CO)cc2)c1 ?
active

Could you check what this test reported for COc1ccc(S(=O)(=O)N2CCc3cccc(-c4ccncc4)c32)cc1 ?
active

Could you check what this test reported for COC(=O)Nc1cc(Nc2cc(NC3CC3)c3ncc(C#N)n3n2)c(Cl)c(N2CCN(C)CC2)c1 ?
active

Could you check what this test reported for O=C(NC[C@H](O)CN1CCc2ccccc2C1)c1cc(NC2COC2)ncn1 ?
active

Could you check what this test reported for Cc1cccc(Oc2cnc(=O)[nH]c2)c1 ?
inactive

Could you check what this test reported for O=[N+]([O-])c1cn2c(n1)OC[C@@H](OCc1ccc(OC(F)(F)F)cc1)C2 ?
active

Could you check what this test reported for O=C(Nc1ccccc1-c1cn2c(CN3CCNCC3)csc2n1)c1cnc2ccccc2n1 ?
active

Could you check what this test reported for CCS(=O)(=O)N1CCC([C@@H](C)n2c(C)c(C(=O)NCc3c(OC)cc(C)[nH]c3=O)c3ccccc32)CC1 ?
inactive

Could you check what this test reported for CCC(C)SSc1ncc[nH]1 (stereo not given) ?
active

Could you check what this test reported for C[C@@H]1CC[C@@]2(OC1)OC1CC3C4CC=C5CC(O)CCC5(C)C4CCC3(C)C1[C@@H]2C (stereo not given in full) ?
inactive
